Target: Lysine-specific demethylase 5B (Homo sapiens) (UniProt Q9UGL1)
Sequence (Q9UGL1 whole entry, looked up): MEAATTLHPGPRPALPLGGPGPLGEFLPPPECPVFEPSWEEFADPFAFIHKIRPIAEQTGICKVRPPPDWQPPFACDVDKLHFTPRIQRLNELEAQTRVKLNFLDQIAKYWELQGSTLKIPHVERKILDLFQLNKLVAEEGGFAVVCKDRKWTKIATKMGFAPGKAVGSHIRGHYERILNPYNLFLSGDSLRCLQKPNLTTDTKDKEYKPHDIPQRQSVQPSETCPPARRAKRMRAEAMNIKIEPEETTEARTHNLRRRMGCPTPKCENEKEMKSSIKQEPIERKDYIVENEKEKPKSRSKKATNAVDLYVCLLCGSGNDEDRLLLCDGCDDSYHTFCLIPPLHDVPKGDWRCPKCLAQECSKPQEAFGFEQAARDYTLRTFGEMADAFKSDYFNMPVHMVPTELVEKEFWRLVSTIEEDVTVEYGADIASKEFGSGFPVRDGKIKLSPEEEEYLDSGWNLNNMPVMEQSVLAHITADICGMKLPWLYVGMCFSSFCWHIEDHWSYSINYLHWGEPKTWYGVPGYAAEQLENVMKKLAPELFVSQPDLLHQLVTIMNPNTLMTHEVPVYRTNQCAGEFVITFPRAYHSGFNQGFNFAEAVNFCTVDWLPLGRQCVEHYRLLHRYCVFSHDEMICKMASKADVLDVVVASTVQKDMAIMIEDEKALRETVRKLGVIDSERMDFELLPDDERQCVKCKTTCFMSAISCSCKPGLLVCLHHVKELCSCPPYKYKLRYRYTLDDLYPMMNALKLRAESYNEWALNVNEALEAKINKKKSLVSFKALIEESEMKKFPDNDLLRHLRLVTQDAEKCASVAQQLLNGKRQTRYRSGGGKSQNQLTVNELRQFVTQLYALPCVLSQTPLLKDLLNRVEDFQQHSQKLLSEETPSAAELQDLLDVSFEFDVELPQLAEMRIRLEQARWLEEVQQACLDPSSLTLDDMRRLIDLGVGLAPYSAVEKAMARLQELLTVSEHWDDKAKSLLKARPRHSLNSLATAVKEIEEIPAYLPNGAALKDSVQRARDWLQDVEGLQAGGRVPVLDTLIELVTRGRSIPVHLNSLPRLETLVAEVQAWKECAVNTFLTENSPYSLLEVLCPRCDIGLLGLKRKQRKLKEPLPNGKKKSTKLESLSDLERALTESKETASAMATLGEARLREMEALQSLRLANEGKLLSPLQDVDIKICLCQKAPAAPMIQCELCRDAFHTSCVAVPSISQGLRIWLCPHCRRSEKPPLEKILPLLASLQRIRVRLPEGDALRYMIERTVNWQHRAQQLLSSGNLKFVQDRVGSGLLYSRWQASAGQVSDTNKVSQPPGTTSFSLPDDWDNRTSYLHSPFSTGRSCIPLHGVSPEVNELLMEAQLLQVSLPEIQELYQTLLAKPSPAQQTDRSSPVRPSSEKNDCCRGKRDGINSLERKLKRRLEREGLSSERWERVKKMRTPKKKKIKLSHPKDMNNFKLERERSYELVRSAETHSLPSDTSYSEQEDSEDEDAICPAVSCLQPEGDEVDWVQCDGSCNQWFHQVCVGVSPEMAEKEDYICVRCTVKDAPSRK
Assay: Primary screen for KDM5B Histone Demethylases FDH-coupled qHTS; also: nearly all actives have a fitted effect of over 70% in size
Conditions: FDH-coupled NADH fluorescence (FDH is formaldehyde dehydrogenase); series mostly up to 57.7 µM
In all, about 220,000 compounds went through this assay and about 5,700 (2.6%) were called active. Roughly 18% stayed inconclusive and do not appear here. Calls follow the shape of the dose curve; as a rule, active = well fitted inhibition curve with a large enough effect; inconclusive = small, poorly fitted or top-dose-only effect; inactive = no such curve, though single readings can be large or run the other way. For the sample, actives were picked, then their nearest neighbours and some compounds at random.
Respond with a class label; see label 1 for active, label 0 for inactive

compound | discrete label
N#Cc1nc(C2CC2)oc1N1CCN(Cc2c(F)cccc2Cl)CC1 | label 0

Next compound, please.
Any idea what this test logged for CC(C)C(=O)Nc1ccc2oc(-c3cccc(Cl)c3)nc2c1 ? label 0
